Origin of values: patent US8614242B2

Consider the following compounds and their measured Efficacy readings.
Tested on: Cochliobolus miyabeanus
condition set: rice, protective, 250 ppm of active ingredient, evaluated 4 days after inoculation
Response body: numeric value in %, unit text excluded.

Completed entries (count: 3):
compound	result number
CCC(c1ccccc1)C1CCCN1C(=O)c1c(C(F)F)nn(C)c1F (stereo not shown)	95
Cn1nc(C(F)F)c(C(=O)N2CCC[C@H]2COc2c(Cl)cc(Cl)cc2Cl)c1F	93
Cn1nc(C(F)F)c(C(=O)N2CCCC2c2cccc(C(F)(F)F)c2)c1F (stereo not shown)	98

// switching to the query compound
# get_value(readout='Efficacy', item= Cc1cc(C)c(CC2CCCN2C(=O)c2c(C(F)F)nn(C)c2F)cc1C (racemic) )
98

----------
Tested on: Pyrenophora teres
assay overview: In vivo preventive test on Pyrenophora teres (barley)
condition set: 500 ppm of active ingredient, evaluated 7-9 days after inoculation
Catalogue of molecules with associated Efficacy

These recorded examples may help you get a feel for the data.
molecule	Efficacy
Cn1nc(C(F)F)c(C(=O)N2CCCC2CCc2ccccc2)c1F (racemic)	100%
Cn1nc(C(F)F)c(C(=O)N2CCCC2c2ccc(Cl)cc2)c1F (stereo not shown)	100%
Cn1nc(C(F)F)c(C(=O)N2CCCC2c2ccccc2C(F)(F)F)c1F (stereo not shown)	100%
Cc1cccc(CC2CCCN2C(=O)c2c(C(F)F)nn(C)c2F)c1 (stereo not shown)	100%
Cn1nc(C(F)F)c(C(=O)N2CCCC2c2ccc(C(C)(C)C)cc2)c1F (stereo not shown)	100%

For Pyrenophora teres, provide Efficacy of Cn1nc(C(F)F)c(C(=O)N2CCCC2c2cccs2)c1F (stereo not shown) please.
95%

Recall the recorded Efficacy for Cn1nc(C(F)F)c(C(=O)N2CCCC2c2cccc3ccccc23)c1F (stereo not shown) with Pyrenophora teres and state it.
90%

# value lookup — system Pyrenophora teres, readout Efficacy, item Cn1nc(C(F)F)c(C(=O)N2CCCC2Cc2ccc(F)cc2)c1F (stereo not shown)
100%

Fill in the recorded Efficacy for this molecule, with Pyrenophora teres as test system: Cn1nc(C(F)F)c(C(=O)N2CCCC2c2ccc(Cl)cc2)c1Cl (stereo not shown)
70%

Hi! What's the reported Efficacy for Cn1nc(C(F)F)c(C(=O)N2CCCC2Cc2ccccc2)c1F (stereo not shown) on Pyrenophora teres?
100%

Kindly state the measured Efficacy obtained for Cn1nc(C(F)F)c(C(=O)N2CCCC2Cc2c(Cl)cccc2Cl)c1Cl (racemic) with Pyrenophora teres.
100%

Provide value of Efficacy for this record tested with Pyrenophora teres: Cn1nc(C(F)F)c(C(=O)N2CCCC2c2ccccc2C(F)(F)F)c1Cl (stereo not shown)
90%

API: value(readout=Efficacy, system=Pyrenophora teres) for record Cn1nc(C(F)F)c(C(=O)N2CCCC2c2ccc(C(F)(F)F)cc2)c1Cl (stereo not shown)
70%

Return Efficacy measured with Pyrenophora teres given this molecule: Cn1nc(C(F)F)c(C(=O)N2CCCC2c2cc(Cl)cc(Cl)c2)c1Cl (stereo not shown)
95%

Form field - read-out: Efficacy; system: Pyrenophora teres; submitted item: Cn1nc(C(F)F)c(C(=O)N2CCCC2c2cc(F)cc(F)c2)c1F (stereo not shown)
100%

Hello, I am looking for reported Efficacy with Pyrenophora teres for Cn1nc(C(F)F)c(C(=O)N2CCCC2c2nc3ccccc3s2)c1F (stereo not shown) . Could you help?
95%

Lab note: need Efficacy with Pyrenophora teres for entry Cn1nc(C(F)F)c(C(=S)N2CCCC2c2ccc(Cl)cc2Cl)c1F (stereo not shown) , please look it up.
100%

For the record Cn1nc(C(F)F)c(C(=O)N2CCCC2c2cccc(Br)c2)c1Cl (stereo not shown) , what value of Efficacy is listed for Pyrenophora teres?
100%

Entry Cn1nc(C(F)F)c(C(=O)N2CCCC2Cc2ccccc2F)c1F (stereo not shown) , system Pyrenophora teres: what Efficacy was measured?
100%

----------
Tested on: Venturia inaequalis
assay overview: In vivo preventive test on Venturia inaequalis (apple scab)
condition set: 100 ppm of active ingredient, evaluated 10 days after inoculation
property label: Efficacy (%)
Numeric only. Scale: %

Efficacy lookup needed for Cn1nc(C(F)F)c(C(=O)N2CCCC2Cc2cccc(Cl)c2)c1F (racemic) , thanks.
100

Looking for the measured Efficacy of Cn1nc(C(F)F)c(C(=O)N2CCCC2Cc2ccccc2F)c1F (stereo not drawn) , can you help?
100

Recorded Efficacy of Cc1cccc(CC2CCCN2C(=O)c2c(C(F)F)nn(C)c2F)c1 (stereo not drawn) , please.
100

----------
Tested on: Pyrenophora teres
assay overview: In vivo preventive test on Pyrenophora teres (barley)
condition set: 500 ppm of active ingredient, evaluated 7-9 days after inoculation
property label: Efficacy
State the value with its unit after it.

Example entries begin here.
molecule	Efficacy
Cn1nc(C(F)F)c(C(=S)N2CCCC2c2cccc(C(F)(F)F)c2)c1F (stereo not drawn)	100%
Cn1nc(C(F)F)c(C(=O)N2CCCC2Cc2ccccc2Cl)c1F (stereo not drawn)	100%
Cn1nc(C(F)F)c(C(=S)N2CCCC2Cc2c(Cl)cccc2Cl)c1F (racemic)	100%
Cn1nc(C(F)F)c(C(=S)N2CCCC2Cc2cccc(Cl)c2Cl)c1F (racemic)	100%
Cn1nc(C(F)F)c(C(=O)N2CCCC2c2ccc(Cl)c(Cl)c2)c1Cl (stereo not drawn)	95%
Cc1ccccc1C1CCCN1C(=O)c1c(C(F)F)nn(C)c1Cl (stereo not drawn)	80%
Cn1nc(C(F)F)c(C(=O)N2CCCC2c2ccc(-c3ccccc3)cc2)c1Cl (stereo not drawn)	100%
Cn1nc(C(F)F)c(C(=O)N2CCCC2Cc2cccc(Cl)c2)c1F (racemic)	100%

State the recorded Efficacy for this entry: Cn1nc(C(F)F)c(C(=O)N2CCCC2c2cc(C(F)(F)F)cc(C(F)(F)F)c2)c1Cl (stereo not drawn)
95%

Any idea what Efficacy was measured for Cn1nc(C(F)F)c(C(=O)N2CCCC2c2cc3ccccc3s2)c1F (stereo not drawn) ?
100%

# query: Efficacy of entry Cn1nc(C(F)F)c(C(=O)N2CCCC2c2ccc(Cl)cc2Cl)c1F (stereo not drawn)
95%

Item Cc1ccc(CC2CCCN2C(=O)c2c(C(F)F)nn(C)c2F)cc1 (stereo not drawn) has what recorded Efficacy?
100%

Bench note: what Efficacy did CCC(c1ccccc1)C1CCCN1C(=O)c1c(C(F)F)nn(C)c1F (stereo not drawn) show?
100%

Can you share its Efficacy? I mean this molecule: Cc1ccccc1C1CCCN1C(=O)c1c(C(F)F)nn(C)c1F (stereo not drawn)
100%

So what does the record say about Efficacy for Cn1nc(C(F)F)c(C(=O)N2CCCC2c2cc(F)cc(F)c2)c1Cl (stereo not drawn) ?
90%

Consider the molecule Cn1nc(C(F)F)c(C(=O)N2CCCC2Cc2cccc3ccccc23)c1F (racemic) and give its measured Efficacy.
100%

Fill in: Efficacy of Cn1nc(C(F)F)c(C(=O)N2CCCC2c2cc(Cl)cc(Cl)c2)c1F (stereo not drawn) is ___
100%

Dear colleague, I am looking for the recorded Efficacy of the following molecule: Cn1nc(C(F)F)c(C(=S)N2CCCC2Cc2ccccc2Cl)c1F (racemic)
100%

----------
assay overview: logP by HPLC on reversed-phase column (EEC Directive 79/831 Annex V.A8)
Format: physicochemical
Method: In table 1, the logP values were determined in accordance with EEC Directive 79/831 Annex V.A8 by HPLC (High Performance Liquid Chromatography) on a reversed-phase column (C 18), using the method described below: Temperature: 40° C.; Mobile phases: 0.1% aqueous formic acid and acetonitrile; linear gradient from 10% acetonitrile to 90% acetonitrile. […]
property label: chromatographic logP
// no unit, no text: just the number

Give the measured chromatographic logP of Cc1cccc(CC2CCCN2C(=O)c2c(C(F)F)nn(C)c2F)c1 (stereo not shown) .
3.21

----------
System: Pyrenophora teres
assay overview: In vivo preventive test on Pyrenophora teres (barley)
condition set: 500 ppm of active ingredient, evaluated 7-9 days after inoculation
property label: Efficacy (%)
Note: unit % is implicit; provide only the numeric part.

compound	units label	result number
Cn1nc(C(F)F)c(C(=O)N2CCCC2Cc2c(F)cccc2Cl)c1F (racemic) [Example 67]	%	100
Cn1nc(C(F)F)c(C(=O)N2CCCC2c2ccc(C(C)(C)C)cc2)c1Cl (stereo not drawn) [Example 12]	%	95
Cn1nc(C(F)F)c(C(=O)N2CCCC2c2ccccc2Br)c1F (stereo not drawn) [Example 32]	%	100
Cn1nc(C(F)F)c(C(=S)N2CCCC2c2cccc(C(F)(F)F)c2)c1Cl (stereo not drawn) [Example 19]	%	100
Cn1nc(C(F)F)c(C(=O)N2CCCC2c2ccccc2Cl)c1F (stereo not drawn) [Example 6]	%	100
Cn1nc(C(F)F)c(C(=O)N2CCCC2Cc2cccc(Cl)c2Cl)c1F (racemic) [Example 69]	%	100
Cc1ccccc1CC1CCCN1C(=O)c1c(C(F)F)nn(C)c1F (stereo not drawn) [Example 54]	%	95
Cn1nc(C(F)F)c(C(=O)N2CCCC2Cc2ccc(Br)cc2)c1F (racemic) [Example 80]	%	100

Look at this compound and give its reported Efficacy. Cn1nc(C(F)F)c(C(=O)N2CCCC2Cc2ccc(C(C)(C)C)cc2)c1F (racemic) [Example 68]
100
